TEST_METHOD_NOTES: chemical genetic growth profiling, strain panel (AID 1159580);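 note: tested at 20 µM; growth read once vehicle control cultures reached saturation at 30 °C; 1 = growth at the plate median or of vehicle wells; lower values mean less growth of the strain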
MEASUREMENT_SETUP: S. cerevisiae deletion strains, growth OD, locus YOR136W, strain idh2, active compounds read low
The campaign covered roughly 5,500 compounds. About 2,000 (36%) were called active. About 18% were inconclusive and are not listed. The list shows a part of the results. *1 amine or outer side, *2 acyl side, *3 side chain or, on linkers, in order; H or OH if unused. Where a SMILES comes first, the peptide text is derived from it. Bridges are numbered along the chain shown (N, C = ends). [ ]: non-standard residue; d: D form. The star is where a group is joined. ξ: configuration not given here. ΔAla(E,3-NHCONH2) = NC(=O)N/C=C(/N)C(=O)O; X2 = NC1=NCCC(C(N[*:1])C(=O)[*:2])N1; ξβ3hOrn = NCCCC(N)CC(=O)*; Dap = NC[CH](N)C(=O)O
Below, each entry is listed alongside its reported normalized growth.
Write the value as a bare number.

// worked examples, normalized growth included
COMPOUND | READOUT_VALUE
COc1c2occc2c(OC)c2c(=O)cc(C)oc12 | 1.02
COc1ccc2c(=O)ccoc2c1 | 1.01
NCCCC(N)CC(=O)NCC1NC(=O)C(CO)NC(=O)C(N)CNC(=O)C(C2CCN=C(N)N2)NC(=O)/C(=C\NC(N)=O)NC1=O (stereo not drawn) (H-[Dap]S[Dap](ξβ3hOrn)[ΔAla(E,3-NHCONH2)][X2]; lactam 1-C; configuration not given here) | 1.01

Lookup: Look up normalized growth: OCCN1CCN(CCCN2c3ccccc3Sc3ccc(C(F)(F)F)cc32)CC1
Found: 0.978
